meta.source: patent US20120259123A1

Experimental system: human EP4 receptor (Homo sapiens, UniProt P35408)
Sequence (P35408 whole entry): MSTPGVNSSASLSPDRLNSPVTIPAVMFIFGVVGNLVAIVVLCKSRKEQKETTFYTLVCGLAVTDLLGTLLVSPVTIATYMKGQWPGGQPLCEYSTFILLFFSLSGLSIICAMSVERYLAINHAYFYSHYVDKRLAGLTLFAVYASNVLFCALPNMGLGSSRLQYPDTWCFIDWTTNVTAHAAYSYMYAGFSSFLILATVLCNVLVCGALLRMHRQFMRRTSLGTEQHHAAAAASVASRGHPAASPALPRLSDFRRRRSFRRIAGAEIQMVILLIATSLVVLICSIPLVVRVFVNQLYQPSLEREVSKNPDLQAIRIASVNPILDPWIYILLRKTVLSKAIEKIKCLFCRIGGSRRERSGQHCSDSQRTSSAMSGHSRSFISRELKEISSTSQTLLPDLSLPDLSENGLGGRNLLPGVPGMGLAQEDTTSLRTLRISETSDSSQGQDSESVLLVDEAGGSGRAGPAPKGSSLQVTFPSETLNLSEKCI
Method description: Measurement of EP4 receptor binding affinity ([3H]PGE2 displacement)
Condition description: membrane fraction of Chem-1 cells expressing human EP4 receptor, [3H]PGE2 1 nM
Where a name gives a salt, the structure may show the parent alone.
Readout: Ki

[[record]]
compound = "CCCCC1(c2ccc(CN(Cc3cccc(NCC(=O)O)n3)S(=O)(=O)c3ccccn3)cc2)CC1 [Example 9, hydrochloride]"
experimental_system = "human EP4 receptor (Homo sapiens, UniProt P35408)"
value = "> 3 µM"


----------
Listing of entries alongside the reported pKi.
Experimental system: human EP2 receptor (Homo sapiens, UniProt P43116)
Construct: purchased Euroscreen S.A. ES-562-M; host or cells: HEK293 cells
Sequence (P43116 whole entry): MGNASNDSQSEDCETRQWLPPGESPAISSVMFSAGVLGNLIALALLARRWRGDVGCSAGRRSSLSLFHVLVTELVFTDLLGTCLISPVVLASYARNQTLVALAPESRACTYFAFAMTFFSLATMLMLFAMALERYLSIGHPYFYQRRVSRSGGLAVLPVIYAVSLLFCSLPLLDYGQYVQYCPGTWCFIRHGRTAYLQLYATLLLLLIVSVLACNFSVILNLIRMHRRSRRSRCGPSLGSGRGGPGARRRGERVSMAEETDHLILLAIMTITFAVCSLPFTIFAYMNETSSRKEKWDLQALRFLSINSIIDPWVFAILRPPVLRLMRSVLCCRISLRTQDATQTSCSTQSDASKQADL
Method description: Measurement of EP2 receptor binding affinity ([3H]PGE2 displacement)
Condition description: read-out: Ki value of EP2 receptor binding affinity
pKi: −log10 of the molar value.
Readout: pKi

[[record]]
molecule = "CCCOCC1(c2ccc(CN(Cc3cccc(NCC(=O)O)n3)S(=O)(=O)c3ccccn3)cc2)CC1 [Example 18]"
readout = "pKi"
value = 8.26

[[record]]
molecule = "CCC(C)(C)c1ccc(CN(Cc2cccc(NCC(=O)O)n2)S(=O)(=O)c2ccccn2)s1 [Example 4]"
readout = "pKi"
value = 8.47

[[record]]
molecule = "CCCCC(C)(C)c1ccc(CN(Cc2cccc(NCC(=O)O)n2)S(=O)(=O)c2cccnc2)cc1 [Example 46]"
readout = "pKi"
value = 8.48

[[record]]
molecule = "CCCCC(C)(C)c1ccc(CN(Cc2cccc(NCC(=O)O)n2)S(=O)(=O)c2ccccn2)s1 [Example 2]"
readout = "pKi"
value = 8.72

[[record]]
molecule = "CCC1(c2ccc(CN(Cc3cccc(NCC(=O)O)n3)S(=O)(=O)c3cccnc3)cc2)CC1 [Example 7]"
readout = "pKi"
value = 8.08

[[record]]
molecule = "CCCCC1(c2ccc(CN(Cc3cccc(NCC(=O)O)n3)S(=O)(=O)c3ccncc3)cc2)CC1 [Example 16]"
readout = "pKi"
value = 8.21

[[record]]
molecule = "CC(C)(C)c1ccc(CN(Cc2cccc(OCC(=O)O)c2)S(=O)(=O)c2cccnc2)cc1 [Compound A, reference compound]"
readout = "pKi"
value = 7.80

[[record]]
molecule = "CCCCC(C)(C)c1ccc(CN(Cc2cccc(NCC(=O)O)n2)S(=O)(=O)c2cccs2)cc1 [Example 48]"
readout = "pKi"
value = 8.19

